Kindly state pIC50 for each of the entries shown.
# targetOrSystem: human ETA receptors (Homo sapiens)
# Sequence (P25101 21-427): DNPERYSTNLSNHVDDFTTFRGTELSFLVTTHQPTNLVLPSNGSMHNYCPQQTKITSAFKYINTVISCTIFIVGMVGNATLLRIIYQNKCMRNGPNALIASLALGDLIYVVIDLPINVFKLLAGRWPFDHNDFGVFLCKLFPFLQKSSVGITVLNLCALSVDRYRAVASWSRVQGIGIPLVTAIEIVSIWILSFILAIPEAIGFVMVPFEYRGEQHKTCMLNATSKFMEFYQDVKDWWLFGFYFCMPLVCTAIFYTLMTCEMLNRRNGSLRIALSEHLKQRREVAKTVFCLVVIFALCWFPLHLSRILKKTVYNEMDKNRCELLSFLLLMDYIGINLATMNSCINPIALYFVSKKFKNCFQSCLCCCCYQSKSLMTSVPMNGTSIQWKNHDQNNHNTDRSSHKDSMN
# testDescription: Inhibition of Endothelin Binding to Recombinant ETA Receptors
# appliedConditions: inhibition of 50% of the specific binding of 125I-endothelin (20 pM), baculovirus-insect cell membranes
Field pIC50 (float): negative decimal logarithm of the concentration in molar.

Can you share its pIC50? I mean this molecule: COc1ccccc1Oc1c(NS(=O)(=O)c2ccc(C(C)C)cn2)cc(C(=O)N2CCOCC2)cc1OCCOC(=O)Nc1ccccn1
8.22

Look up pIC50: CCOC(=O)N1CCN(C(=O)c2cc(NS(=O)(=O)c3ccc(C(C)C)cn3)c(Oc3ccccc3OC)c(OCCOC(=O)Nc3ccccn3)c2)CC1
8.70

Would you mind telling me what pIC50 value was observed for COc1ccccc1Oc1c(NS(=O)(=O)c2ccc(C(C)C)cn2)cc(C(=O)N2CCN(C)CC2)cc1OCCOC(=O)Nc1ccccn1 ?
8.00

What value of pIC50 has been reported for the following molecule? COc1ccc(Cl)c(Oc2c(NS(=O)(=O)c3ccc(C(F)(F)F)cc3)cc(C(=O)Nc3ccccc3)cc2OCCO)c1
4.07
